Origin of measurements: patent US10800791B2

Kindly supply the reported IC90 values for the records listed here.
System: Rhizoctonia solani (Rs)
Test: Growth inhibition assay of fungal pathogens, Rs
Assay type: cell-based
Conditions: 48 h, mycelial plugs, growth inhibition at 48 hours vs 2% DMSO control, read-out: Concentration at 90% Inhibition Rs

These recorded examples may help you get a feel for the data.
{"compound": "COc1ccc(F)cc1[C@H](Cn1c(=O)n(C(C)(C)C(=O)NCC(C)C)c(=O)c2c(C)c(-n3nccn3)sc21)OC1CCOCC1 [Compound I-29]", "measured-target": "Rhizoctonia solani (Rs)", "IC90": "2 µg/mL"}
{"compound": "COc1ccc(F)cc1[C@@H](Cn1c(=O)n(C(C)(C)C(=O)NC(C)C)c(=O)c2c(C)c(-n3nccn3)sc21)OC(C)=O [Compound I-259]", "measured-target": "Rhizoctonia solani (Rs)", "IC90": "0.08 µg/mL"}
{"compound": "COCCO[C@@H](Cn1c(=O)n([C@H](C)C(=O)N2CCCC2)c(=O)c2c(C)c(-n3nccn3)sc21)c1cc(F)ccc1OC [Compound I-65]", "measured-target": "Rhizoctonia solani (Rs)", "IC90": "2 µg/mL"}
{"compound": "CCO[C@@H](Cn1c(=O)n(C(C)(C)C(=O)N2CCCC2)c(=O)c2c(C)c(-n3nccn3)sc21)c1cc(F)ccc1OC [Compound I-42]", "measured-target": "Rhizoctonia solani (Rs)", "IC90": "0.4 µg/mL"}
{"compound": "COc1ccc(F)cc1[C@H](Cn1c(=O)n(C(C)(C)C(=O)N2CCCC2)c(=O)c2c(C)c(-n3nccn3)sc21)OCC(C)(C)O [Compound I-58]", "measured-target": "Rhizoctonia solani (Rs)", "IC90": "0.4 µg/mL"}

Tell me the measured IC90 of COc1ccc(F)cc1[C@H](Cn1c(=O)n(C(C)(C)C(=O)N2CCCC2)c(=O)c2c(C)c(-n3nccn3)sc21)OCCN(C)C [Compound I-75] , please.
> 50 µg/mL
